system-name: human Edg-1(S1P1) (Homo sapiens, UniProt P21453)
Construct: expressed in transfected cells; host or cells: HEK-293
Sequence (P21453 whole entry): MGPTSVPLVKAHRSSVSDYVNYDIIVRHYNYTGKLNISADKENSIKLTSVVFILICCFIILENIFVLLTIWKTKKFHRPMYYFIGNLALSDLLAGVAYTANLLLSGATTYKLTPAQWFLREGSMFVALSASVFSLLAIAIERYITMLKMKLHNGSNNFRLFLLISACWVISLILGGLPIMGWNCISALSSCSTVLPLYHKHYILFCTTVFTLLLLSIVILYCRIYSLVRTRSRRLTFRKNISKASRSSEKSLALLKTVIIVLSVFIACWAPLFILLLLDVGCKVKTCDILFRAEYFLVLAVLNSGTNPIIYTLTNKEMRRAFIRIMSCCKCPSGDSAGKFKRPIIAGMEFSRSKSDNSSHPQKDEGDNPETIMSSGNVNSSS
procedure-text: Membrane system binding test: inhibition of [33P]-S1P binding to the membrane fraction of Edg-1(S1P1) gene transferred HEK-293 cells
condition-description: 10 μM compound; [33P]-S1P 0.1 nM; membrane fraction of Edg-1(S1P1) gene transferred HEK-293 cells; read-out: Membrane system binding test % inhibition (10 μM)
Lab note: anything with inhibition at 10 µM at or over 80% counts as met; the rest go in not met.

In plain terms: is recorded inhibition at 10 µM at least 80% for CCn1c(SCCCC(C)=O)nnc1[C@@H](C)NS(=O)(=O)c1ccc(Cl)cc1 ?
met

* * *

inhibition at 10 µM values by entry
system-name: human Edg-1(S1P1) (Homo sapiens, UniProt P21453)
Construct: expressed in transfected cells; host or cells: HEK-293
procedure-text: Cell system binding test: inhibition of [3H]-S1P binding to Edg-1(S1P1) gene transferred HEK-293 cells
condition-description: 10 μM compound, [3H]-S1P 10 nM, read-out: Cell system binding test % inhibition (10 μM)
The reply should contain only the number, in %.

Reported inhibition at 10 µM for CCn1c(SCc2ccc([N+](=O)[O-])cc2)nnc1[C@@H](C)NS(=O)(=O)c1ccc(Cl)cc1 was 87.6

Reported inhibition at 10 µM for CCn1c(SCCCc2ccccc2)nnc1[C@@H](C)NS(=O)(=O)c1ccc(Cl)cc1 was 93.8

Further cases:
Reported inhibition at 10 µM for CCn1c(SCCC2CCN(C)CC2)nnc1[C@@H](C)NS(=O)(=O)c1ccc(Cl)cc1 was 97.3

Reported inhibition at 10 µM for CCn1c(OC)nnc1[C@@H](C)NS(=O)(=O)c1cc(Br)c(Br)s1 was 97.9

Reported inhibition at 10 µM for CCn1c(OC)nnc1[C@@H](C)NS(=O)(=O)c1ccc(C)cc1OC was 95.8

Reported inhibition at 10 µM for C=CCSc1nnc(C(C)NS(=O)(=O)c2ccc(Cl)cc2)n1C (centres unmarked) was 72.9

Reported inhibition at 10 µM for CCn1c(OC)nnc1[C@@H](C)NS(=O)(=O)c1cc(C(F)(F)F)cc(C(F)(F)F)c1 was 98.2

Reported inhibition at 10 µM for CCn1c(OC)nnc1[C@@H](C)NS(=O)(=O)c1c(C)cc(C)cc1C was 94

* * *

system-name: human Edg-1(S1P1) (Homo sapiens)
Construct: expressed in transfected cells; host or cells: HEK-293
procedure-text: Cell system binding test: inhibition of [3H]-S1P binding to Edg-1(S1P1) gene transferred HEK-293 cells
condition-description: test compound 10^-5 M, [3H]-S1P 10 nM, 1 hour, read-out: Edg-1(S1P1) binding inhibition rate (cell system binding test)
property-measured: inhibition at 10 µM
The reply should read as a number followed by its unit.

Example results:
Param item: CCn1c(OCC(F)(F)F)nnc1[C@@H](C)NS(=O)(=O)c1ccc(Br)c(C)c1 ; param system: human Edg-1(S1P1) (Homo sapiens); output inhibition at 10 µM: 103%

Param item: CCn1c(OC(C)C)nnc1[C@@H](C)NS(=O)(=O)c1ccc(Br)c(F)c1 ; param system: human Edg-1(S1P1) (Homo sapiens); output inhibition at 10 µM: 93.2%

Param item: CCn1c(OCC(F)(F)F)nnc1[C@@H](C)NS(=O)(=O)c1ccc(C)c(Cl)c1 ; param system: human Edg-1(S1P1) (Homo sapiens); output inhibition at 10 µM: 99.5%

Param item: CCn1c(OC(C)C)nnc1[C@@H](C)NS(=O)(=O)c1ccc2ccccc2c1 ; param system: human Edg-1(S1P1) (Homo sapiens); output inhibition at 10 µM: 99.6%

Param item: CCn1c(OC(C)C)nnc1[C@@H](C)NS(=O)(=O)c1ccc(I)cc1 ; param system: human Edg-1(S1P1) (Homo sapiens); output inhibition at 10 µM: 100%

Param item: CCn1c(OC(C)C)nnc1[C@@H](C)NS(=O)(=O)c1ccc(Br)s1 ; param system: human Edg-1(S1P1) (Homo sapiens); output inhibition at 10 µM: 91.8%

Param item: CCn1c(OC(C)C)nnc1[C@@H](C)NS(=O)(=O)c1cccc(OC(F)F)c1 ; param system: human Edg-1(S1P1) (Homo sapiens); output inhibition at 10 µM: 99.3%

Further cases:
Param item: CCn1c(OC(C)C)nnc1[C@@H](C)NS(=O)(=O)c1ccc(C)c(F)c1 ; param system: human Edg-1(S1P1) (Homo sapiens); output inhibition at 10 µM: 88.7%
